B1: Zinc finger MYM-type protein 6, residues 427 to 504; numbered along this chain, O95789 (parent)
chain: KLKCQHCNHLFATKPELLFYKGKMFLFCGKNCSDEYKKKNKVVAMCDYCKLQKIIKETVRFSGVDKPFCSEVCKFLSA

Variants of: B1
assay.summary: abundance fitness (aPCA) (normalised: wild type 0, dead -1); higher = more abundant; growth selection in yeast, the domain comes from the species named
condition.description: Homo sapiens
Dear colleague, classification is by abundance fitness, with ranges listed here: low bracket = under -0.3, middle bracket = from -0.3 up to -0.05, high bracket = -0.05 and over

C73Q
low bracket
S70H
middle bracket
G29C
middle bracket
K66M
high bracket
M45R
middle bracket
I54T
high bracket
E71V
low bracket
K23E
high bracket

q: Class label required: M24R
a: high bracket

q: Class label required: K30M
a: middle bracket
